- studySystem: APN (Homo sapiens)
- Construct: purchased Sigma-Aldrich
- assay: Kinetic assay (Lineweaver–Burk) on APN
- Format: biochemical
- statedConditions: APN treated with compound 1 mM
property: Kcat (s⁻¹)

• C/C=C/[S@+]([O-])C[C@H](N)C(=O)O = 381.3
• O=c1c(O)c(-c2ccc(O)c(O)c2)oc2cc(O)cc(O)c12 = 368.1
• C=CCSSSCC=C [DATS, diallyl trisulfide] = 368.9
• C[S@+]([O-])C[C@H](N)C(=O)O = 367.0
• O=c1c(O)c(-c2ccc(O)cc2)oc2cc(O)cc(O)c12 = 396.3
• C=CCSSCC=C [DADS, diallyl disulfide] = 394.8

###

- studySystem: PDE5 (Homo sapiens, UniProt O76074)
- assay: Kinetic assay (Lineweaver–Burk) on PDE5;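 also: pure compound doses in mM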
- Type: biochemical
- Design: unit of the concentration uncertain
- statedConditions: PDE5 treated with compound 1 (unit uncertain)
property: Vmax (mU/min)

* O=c1c(O)c(-c2ccc(O)cc2)oc2cc(O)cc(O)c12 | 0.671
* O=c1c(O)c(-c2ccc(O)c(O)c2)oc2cc(O)cc(O)c12 | 0.724
* C[S@+]([O-])C[C@H](N)C(=O)O | 0.828
* C=CCSSCC=C [DADS, diallyl disulfide] | 0.959
* C/C=C/[S@+]([O-])C[C@H](N)C(=O)O | 0.871
* C=CCSSSCC=C [DATS, diallyl trisulfide] | 0.940

###

- studySystem: APN (Homo sapiens, UniProt P15144)
- Construct: purchased Sigma-Aldrich
- Sequence (P15144 whole entry, species assumed): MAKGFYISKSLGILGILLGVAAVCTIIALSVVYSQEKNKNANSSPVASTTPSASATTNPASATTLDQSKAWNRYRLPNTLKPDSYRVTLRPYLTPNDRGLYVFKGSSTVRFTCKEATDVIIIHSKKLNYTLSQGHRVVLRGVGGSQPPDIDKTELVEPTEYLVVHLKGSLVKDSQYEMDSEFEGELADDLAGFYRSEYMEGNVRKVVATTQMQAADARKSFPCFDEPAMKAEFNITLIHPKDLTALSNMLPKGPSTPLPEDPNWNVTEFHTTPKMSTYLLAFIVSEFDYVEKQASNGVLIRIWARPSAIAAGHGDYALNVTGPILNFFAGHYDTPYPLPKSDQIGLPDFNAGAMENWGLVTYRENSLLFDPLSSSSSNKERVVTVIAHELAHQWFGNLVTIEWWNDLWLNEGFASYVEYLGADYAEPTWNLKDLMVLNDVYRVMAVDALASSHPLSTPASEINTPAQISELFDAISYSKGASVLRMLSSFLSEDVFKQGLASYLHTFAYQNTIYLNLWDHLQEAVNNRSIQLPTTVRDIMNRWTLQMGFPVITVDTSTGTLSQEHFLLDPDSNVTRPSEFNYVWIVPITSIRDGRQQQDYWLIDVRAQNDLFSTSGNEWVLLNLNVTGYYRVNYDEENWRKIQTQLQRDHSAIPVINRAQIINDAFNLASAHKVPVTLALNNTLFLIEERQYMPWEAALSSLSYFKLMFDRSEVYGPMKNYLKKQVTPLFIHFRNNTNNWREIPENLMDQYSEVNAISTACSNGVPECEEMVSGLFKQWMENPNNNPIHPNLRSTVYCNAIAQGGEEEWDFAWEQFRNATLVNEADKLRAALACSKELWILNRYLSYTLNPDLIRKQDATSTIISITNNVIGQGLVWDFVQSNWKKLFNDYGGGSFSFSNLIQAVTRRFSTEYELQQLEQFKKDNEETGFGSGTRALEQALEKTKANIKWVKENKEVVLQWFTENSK
- assay: Kinetic assay (Lineweaver–Burk) on APN
- Format: biochemical
- statedConditions: APN treated with compound 10 mM
property: Vmax (mU/min)

• C=CCSSSCC=C [DATS, diallyl trisulfide] = 0.230
• C[S@+]([O-])C[C@H](N)C(=O)O = 0.176
• C=CCSSCC=C [DADS, diallyl disulfide] = 0.294
• O=c1c(O)c(-c2ccc(O)c(O)c2)oc2cc(O)cc(O)c12 = 0.171
• C/C=C/[S@+]([O-])C[C@H](N)C(=O)O = 0.222
• O=c1c(O)c(-c2ccc(O)cc2)oc2cc(O)cc(O)c12 = 0.216

###

- studySystem: APN (Homo sapiens, UniProt P15144)
- Construct: purchased Sigma-Aldrich
- assay: Kinetic assay (Lineweaver–Burk) on APN
- Format: biochemical
- statedConditions: highest concentration; non-treated 0.316 mU/min = 1.0-fold
property: Vmax value of APN, fold of non-treated group (fold)

- C[S@+]([O-])C[C@H](N)C(=O)O [MT, methiin]: 0.56
- C=CCSSSCC=C [DATS, diallyl trisulfide]: 0.73
- C/C=C/[S@+]([O-])C[C@H](N)C(=O)O [IA, isoalliin]: 0.70
- C=CCSSCC=C [DADS, diallyl disulfide]: 0.93
- O=c1c(O)c(-c2ccc(O)c(O)c2)oc2cc(O)cc(O)c12 [QUE, quercetin]: 0.54

###

- studySystem: PDE5 (Homo sapiens, UniProt O76074)
- assay: Kinetic assay (Lineweaver–Burk) on PDE5;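 also: pure compound doses in mM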
- Assay type: biochemical
- Design: unit of the concentration uncertain
- statedConditions: PDE5 treated with compound 2 (unit uncertain)
// Kcat lookup, one value per entry
property: Kcat (k s^−1)

* C=CCSSCC=C [DADS, diallyl disulfide] | 6625
* C[S@+]([O-])C[C@H](N)C(=O)O | 5580
* O=c1c(O)c(-c2ccc(O)c(O)c2)oc2cc(O)cc(O)c12 | 5187
* C=CCSSSCC=C [DATS, diallyl trisulfide] | 6757
* C/C=C/[S@+]([O-])C[C@H](N)C(=O)O | 5489
* O=c1c(O)c(-c2ccc(O)cc2)oc2cc(O)cc(O)c12 | 4591
